tested-system: FGFR3 (UniProt P22607)
Sequence (P22607 whole entry, looked up): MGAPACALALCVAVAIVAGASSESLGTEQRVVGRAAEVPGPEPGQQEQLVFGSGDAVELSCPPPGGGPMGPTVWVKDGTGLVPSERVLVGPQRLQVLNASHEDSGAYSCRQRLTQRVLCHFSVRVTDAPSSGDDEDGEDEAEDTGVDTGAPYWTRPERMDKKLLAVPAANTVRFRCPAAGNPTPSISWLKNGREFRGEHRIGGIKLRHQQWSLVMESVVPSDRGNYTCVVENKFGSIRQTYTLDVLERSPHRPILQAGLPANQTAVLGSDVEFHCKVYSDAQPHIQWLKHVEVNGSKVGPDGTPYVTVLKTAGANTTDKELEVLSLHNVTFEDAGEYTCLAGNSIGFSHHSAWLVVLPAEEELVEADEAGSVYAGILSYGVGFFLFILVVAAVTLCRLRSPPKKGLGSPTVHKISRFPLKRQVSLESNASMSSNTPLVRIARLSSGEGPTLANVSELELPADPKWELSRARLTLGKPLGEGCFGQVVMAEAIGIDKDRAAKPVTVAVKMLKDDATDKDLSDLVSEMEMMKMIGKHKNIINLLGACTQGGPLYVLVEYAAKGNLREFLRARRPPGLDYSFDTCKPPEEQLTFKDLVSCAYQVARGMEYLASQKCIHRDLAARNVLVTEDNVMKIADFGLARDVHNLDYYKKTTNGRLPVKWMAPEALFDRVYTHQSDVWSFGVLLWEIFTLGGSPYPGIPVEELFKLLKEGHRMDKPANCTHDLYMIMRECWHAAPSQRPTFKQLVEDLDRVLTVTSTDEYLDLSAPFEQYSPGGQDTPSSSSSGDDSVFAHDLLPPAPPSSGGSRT
experiment: phosphorylation enrichment, bacterial display (enrichment ratio); higher = better substrate or ligand; peptides without Tyr show the background;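 further: 11-residue human phosphosite peptides and single-mutation variants displayed on the E. coli surface, counted by deep sequencing, each peptide's frequency after selection divided by its frequency in the unselected input library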;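 further: frequency after pTyr selection over input frequency; kinase dosed for 20-30% of maximal phosphorylation in three min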
test-readout: phosphorylation enrichment

>>> result("FVGGFYGGCNE [CTSC_Y352_YF]")
0.918
>>> result("KRLKDYLTVLQ [USP25_Y425]")
0.522
>>> result("GLIPAYHRFIM [NMNAT1_Y64_V67F]")
0.687
>>> result("TALFIYIRPKA [OR10C1_Y258]")
0.712
>>> result("VKPENYRRLDI [VHL_Y175]")
0.463
>>> result("ILNANYMAKRL [GLDC_Y839]")
0.412
>>> result("LYRYGYANTSE [SI_Y1233_C1229Y]")
0.507
>>> result("GYKVRYATGSI [FGFR1_Y210_W213G]")
0.423
>>> result("YRIGPYQPSVP [MATR3_Y784_N787S]")
0.759
>>> result("SEKVVYRRFTE [NCF1_Y41]")
0.472
>>> result("EIVHRYVELLD [AP1S3_Y87]")
0.673
>>> result("SRGSSYNSIPK [FLNC_Y2625_S2626N]")
0.383
>>> result("QMQNPYSRHSS [MUC13_Y501]")
0.495
>>> result("ALAAPYVLFPG [CEFIP_Y1332_YF]")
2.44
>>> result("EHLNRYINDTF [TTLL10_Y446_S448N]")
0.654
>>> result("MASISYDYCRV [BST2_Y6_T4I]")
1.1
>>> result("PSAELYSNALP [PDGFRB_Y716]")
1.73
>>> result("GYEEAYSVSKK [PAFAH1B1_Y28_F31S]")
0.607
>>> result("CTTLHYNYMCN [TP53_Y234_I232L]")
0.745
>>> result("FAADFYKLLGN [ROR2_Y646_YF]")
0.66
>>> result("TVLGEYALPKG [CYP24A1_Y407]")
0.562
>>> result("HRAVEYLLMGI [RAD23A_Y197_T200M]")
1.02
>>> result("LLPNAYIFVVQ [L1CAM_Y418_A415P_YF]")
1.07
>>> result("SIRYNYLLDVL [FGFR4_Y237]")
0.636
>>> result("EERNTYVNTTL [TEK_Y1102_K1100N]")
0.454
>>> result("KLASTYREAAT [DEAF1_Y483_H479L]")
0.351

###

tested-system: Hck (UniProt P08631)
Sequence (P08631 whole entry, looked up): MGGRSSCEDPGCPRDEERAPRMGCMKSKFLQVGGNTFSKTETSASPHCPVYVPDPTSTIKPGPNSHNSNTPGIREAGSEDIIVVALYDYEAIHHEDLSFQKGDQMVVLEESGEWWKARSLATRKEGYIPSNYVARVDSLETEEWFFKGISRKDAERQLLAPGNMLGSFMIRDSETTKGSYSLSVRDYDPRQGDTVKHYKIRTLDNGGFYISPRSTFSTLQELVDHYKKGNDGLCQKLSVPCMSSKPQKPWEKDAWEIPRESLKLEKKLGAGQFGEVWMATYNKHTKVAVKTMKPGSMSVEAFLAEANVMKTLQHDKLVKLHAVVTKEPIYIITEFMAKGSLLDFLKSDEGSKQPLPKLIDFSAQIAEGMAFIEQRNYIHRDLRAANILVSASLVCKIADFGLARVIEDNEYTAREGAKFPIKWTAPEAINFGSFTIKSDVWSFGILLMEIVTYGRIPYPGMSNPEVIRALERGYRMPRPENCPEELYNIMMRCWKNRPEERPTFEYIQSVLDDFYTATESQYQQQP
experiment: phosphorylation enrichment, bacterial display (enrichment ratio); higher = better substrate or ligand; peptides without Tyr show the background
# maps each entry to its phosphorylation enrichment
test-readout: phosphorylation enrichment

>>> result("QRIFQYIRSRF [DYRK1B_Y273_Q275R_YF]")
0.83
>>> result("HQNGMYRLHQD [SGSH_Y89_G90R]")
0.461
>>> result("VFAANYFKLLG [ROR2_Y645_D644N_YF]")
0.526
>>> result("PAVGIYNGNIN [CDCP1_Y707_D709G]")
1.55
>>> result("KGEDFYFVTCH [FHL1_Y149_C150Y_YF]")
0.503
>>> result("ALAAPYVLFPG [CEFIP_Y1332_YF]")
0.641
>>> result("MMVGAYSTLEG [ECPAS_Y470]")
1.07
>>> result("KRLKDYLTVLQ [USP25_Y425]")
0.322
